- Test system: Radical scavenging activity
- method-summary: Antioxidant activity measured as ability to reduce ferric tripyridyltriazine complex at 15 uM by FRAP assay
- Type: functional
Activity calls are given as the source filed them. The calls are words filed in the database; no cut-off is given here.
reported-endpoint: Activity

[[record]]
chemical_string = "CN(C)c1ccc(/C=C/c2ccccc2)cc1"
reported_endpoint = "Activity"
obs_value = "Active"

[[record]]
chemical_string = "C(=C\\c1ccc2ccccc2c1)/c1ccccc1"
reported_endpoint = "Activity"
obs_value = "inactive"

[[record]]
chemical_string = "COc1ccc(/C=C/c2ccc(C)cc2)cc1"
reported_endpoint = "Activity"
obs_value = "inactive"

[[record]]
chemical_string = "COc1ccc(/C=C/c2ccccc2Cl)cc1"
reported_endpoint = "Activity"
obs_value = "inactive"

[[record]]
chemical_string = "COc1ccc(/C=C/c2cccc(C)c2)cc1"
reported_endpoint = "Activity"
obs_value = "inactive"


Kindly give each listed record's Activity.
1. COc1ccc(/C=C/c2ccc(O)c(O)c2)cc1
2. COc1ccc(/C=C/c2cccc(F)c2)cc1

# output
["Active", "inactive"]
